// provenance: the supplement of paper PMC10307832

A collection of molecules and their measured relative viability
# Tested on: NCI-H2228
# Assay Details: relative viability (nuclei count vs DMSO), 5 days (fraction); higher = more cells survive
# Condition Context: first compound 0.002 µM
Lab note: jot down the number only; don't add units.

Examples from the recorded data:
>  <Molecule>
CCNC(=O)c1noc(-c2cc(C(C)C)c(O)cc2O)c1-c1ccc(CN2CCOCC2)cc1 [Luminespib] + COc1cc2c(Oc3ccc(NC(=O)C4(C(=O)Nc5ccc(F)cc5)CC4)cc3F)ccnc2cc1OCCCN1CCOCC1 [Foretinib] (partner 0.25 µM)

>  <relative viability>
0.776

$$$$
>  <Molecule>
CCNC(=O)c1noc(-c2cc(C(C)C)c(O)cc2O)c1-c1ccc(CN2CCOCC2)cc1 [Luminespib] + CC(C)C[C@H](NC(=O)[C@H](Cc1ccccc1)NC(=O)c1cnccn1)B(O)O [Bortezomib] (partner 0.002 µM)

>  <relative viability>
0.985

$$$$
>  <Molecule>
CCNC(=O)c1noc(-c2cc(C(C)C)c(O)cc2O)c1-c1ccc(CN2CCOCC2)cc1 [Luminespib] + CC1(C)CCC(c2ccc(Cl)cc2)=C(CN2CCN(c3ccc(C(=O)NS(=O)(=O)c4ccc(N[C@H](CCN5CCOCC5)CSc5ccccc5)c(S(=O)(=O)C(F)(F)F)c4)cc3)CC2)C1 [Navitoclax] (partner 0.5 µM)

>  <relative viability>
0.836

$$$$
>  <Molecule>
CCNC(=O)c1noc(-c2cc(C(C)C)c(O)cc2O)c1-c1ccc(CN2CCOCC2)cc1 [Luminespib] + Cc1cc(Nc2cc(N3CCN(C)CC3)nc(Sc3ccc(NC(=O)C4CC4)cc3)n2)n[nH]1 [Tozasertib] (partner 0.1 µM)

>  <relative viability>
0.353

$$$$

What measured relative viability is associated with CCNC(=O)c1noc(-c2cc(C(C)C)c(O)cc2O)c1-c1ccc(CN2CCOCC2)cc1 [Luminespib] + Cc1nc(Nc2ncc(C(=O)Nc3c(C)cccc3Cl)s2)cc(N2CCN(CCO)CC2)n1 [Dasatinib] (partner 0.075 µM) on NCI-H2228?
0.423

Record: CCNC(=O)c1noc(-c2cc(C(C)C)c(O)cc2O)c1-c1ccc(CN2CCOCC2)cc1 [Luminespib] + CC(=O)c1c(C)c2cnc(Nc3ccc(N4CCNCC4)cn3)nc2n(C2CCCC2)c1=O [Palbociclib] (partner 0.5 µM)
0.752
